Protocol details: in vivo
Parameters: species or system Male Sprague-Dawley rats
Conditions: male, Sprague-Dawley, rat, iv, 1 mg/kg, AUC(0-inf)
Recorded metric: AUC(0-inf)

What AUC(0-inf) value was documented for this compound, Cc1nc2ccc3ccc(CNc4ccc5c(c4)CN(C(CCC(=O)O)C(=O)O)C5=O)cc3c2c(=O)[nH]1 (stereo not shown) ?
270 ng·h/mL

* * *

Protocol details: Example 2: single dose plasma pharmacokinetics of free GW1843 and four liposomal formulations, 1 mg/kg iv bolus
Assay type: in vivo, Sprague Dawley rats
Conditions: Sprague Dawley, rat, plasma; single 1 mg/kg iv bolus, rats ~250 g; noncompartmental, group average; read-out: Vss
Recorded metric: Vd (L/kg)
Report as a plain number; the unit L/kg is understood.

Sample Cc1nc2ccc3ccc(CNc4ccc5c(c4)CN(C(CCC(=O)O)C(=O)O)C5=O)cc3c2c(=O)[nH]1 (stereo not shown) [GW1843] — what was its Vd?
1.89
